Just for reference, patent US20250026752A1 is where these values come from.

target: human mAChR M4 (Homo sapiens, UniProt P08173); construct: expressed in transfected cells; host or cells: CHO-K1 (ATCC), stably expressing hM4 and Gqi5; test: mAChR M4 cell-based functional assay: calcium flux (Fluo-4, FDSS), positive allosteric modulator activity on the EC20 acetylcholine response, hM4-Gqi5 CHO-K1 cells; settings: human M4; PAM activity on EC20 acetylcholine response, calcium flux; read-out: Human M4 EC50
Sequence (P08173 whole entry): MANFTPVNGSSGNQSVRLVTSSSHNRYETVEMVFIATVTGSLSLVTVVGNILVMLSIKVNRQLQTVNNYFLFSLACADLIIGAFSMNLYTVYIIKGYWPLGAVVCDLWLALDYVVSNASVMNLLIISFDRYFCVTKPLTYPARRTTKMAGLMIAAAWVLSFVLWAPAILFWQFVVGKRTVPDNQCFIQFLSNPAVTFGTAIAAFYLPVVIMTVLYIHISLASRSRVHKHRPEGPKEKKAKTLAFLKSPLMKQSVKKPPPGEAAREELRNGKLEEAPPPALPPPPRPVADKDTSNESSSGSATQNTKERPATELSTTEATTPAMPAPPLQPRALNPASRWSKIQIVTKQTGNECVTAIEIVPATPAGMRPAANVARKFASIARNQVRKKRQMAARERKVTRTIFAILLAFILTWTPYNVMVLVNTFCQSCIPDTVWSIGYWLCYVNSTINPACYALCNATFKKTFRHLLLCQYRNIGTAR
METRIC: EC50 (µM)
Supply the numeric figure in µM, leaving out any unit text.

Answered examples (3):
{"columns": ["MOLECULE", "UNIT_OF_MEASUREMENT", "EC50"],
 "data": [
  ["Fc1ccc2ncnc(N3CCc4ncc(-c5ccnn5C5COC5)cc4C3)c2c1 [Compound 265]", "µM", 0.5],
  ["Cc1nc(N2CCc3ncc(C(F)(F)F)cc3C2)c2cccc(F)c2n1 [Compound 126]", "µM", 0.31],
  ["Cc1nc(N2CCc3ncc(C(F)(F)F)cc3C2)c2cc(Br)ccc2n1 [Compound 129]", "µM", 0.18]
]}

Sure, the documented EC50 for COc1ccc2ncnc(N3CCc4ncc(-c5cnc(F)cc5C)cc4C3)c2c1 [Compound 308] is 0.11

Reported EC50 of Cn1nccc1-c1cnc2c(c1)CN(c1ncnc3cc(F)c(F)cc13)CC2 [Compound 239] : 0.8

get_value(item= Fc1cc2ncnc(N3CCc4ncc(-c5ccnn5C5COC5)cc4C3)c2cc1F [Compound 269] , readout=EC50) returns 1.6

Recorded EC50 (molecule Fc1ncccc1Nc1cnc2c(c1)CN(c1nc(Cl)nc3ccc(Cl)cc13)CC2 [Compound 88] ): 1.07

Form field EC50, entry Fc1ccc2ncnc(N3CCc4ncc(N5CCOC(c6ccccn6)C5)cc4C3)c2c1 (stereo not shown) [Compound 223] : 0.67

molecule Fc1cc2ncnc(N3CCc4ncc(N5CCCn6ccnc65)cc4C3)c2cc1F [Compound 277] , EC50 observed: 2.63

Lab book: EC50 of Cc1cc(F)c(F)cc1-c1cnc2c(c1)CN(c1ncnc3ccc(F)cc13)CC2 [Compound 306] noted as 5.5

* * *

target: human mAChR M4 (Homo sapiens, UniProt P08173); construct: expressed in transfected cells; host or cells: CHO-K1 (ATCC), stably expressing hM4 and Gqi5; test: mAChR M4 cell-based functional assay: calcium flux (Fluo-4, FDSS), positive allosteric modulator activity on the EC20 acetylcholine response, hM4-Gqi5 CHO-K1 cells; details: human M4; PAM activity on EC20 acetylcholine response, calcium flux; read-out: Human M4 EC50
pEC50: −log10 of the molar value.
Lab note: compare pEC50 against 6. Equal or greater, write y. Smaller, write n.

{"columns": ["MOLECULE", "GROUP"],
 "data": [
  ["Fc1ccc2ncnc(N3CCc4ncc(N5CCC(C(F)(F)F)n6nccc65)cc4C3)c2c1 (centres unmarked)", "y"],
  ["c1cnc2nc(N3CCCC3)nc(N3CCc4ncc(N5CCCn6nccc65)cc4C3)c2c1", "y"],
  ["Fc1ccc2nc(NC3CC3)nc(N3CCc4ncc(C(F)(F)F)cc4C3)c2c1", "y"],
  ["COc1ccc2nc(C)nc(N3CCc4ncc(-c5cnc(F)cc5C)cc4C3)c2c1", "y"],
  ["COc1ccc2ncnc(N3CCc4ncc(-c5cc(F)ccc5C)cc4C3)c2c1", "n"]
]}

Has CC1CN(c2ncnc3cc(F)c(F)cc23)Cc2cc(N3CCOCC3)cnc21 (centres unmarked) a recorded pEC50 greater than or equal to 6?
y

Please check the record `Cc1nc(N2CCc3ncc(C4CC4)cc3C2)c2cc(C(F)(F)F)ccc2n1` and state if its pEC50 is at or above 6.
n

Hello, I need to know if `Cc1nc(N2CCc3ncc(-c4cnc(F)cc4C)cc3C2)c2cc(Cl)ccc2n1` has measured pEC50 not below 6. Thanks!
y
